test: logP analysis of the F-18-α-syn3; assay type: physicochemical; settings: end solution, 22 uCi; read-out: logP
readout-type: logP

>>> endpoint_result("O=C1/C(=C\\C=C\\c2ccc([N+](=O)[O-])cc2)c2ccccc2N1CCOCCF [F-18-α-syn3]")
2.41

---

target: α-synuclein (Homo sapiens); test: test tube competition test, α-synuclein; conditions: read-out: IC50 (50% binding inhibition)
readout-type: IC50 (nM)

>>> endpoint_result("O=C1/C(=C\\C=C\\c2ccc([N+](=O)[O-])cc2)c2ccccc2N1CCOCCF [F-18-α-syn3]")
172

---

molecular target: amyloid-β(Aβ) (Homo sapiens)
Sequence (P05067 672-713 limits assumed): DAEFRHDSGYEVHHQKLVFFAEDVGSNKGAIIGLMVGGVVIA
pIC50: −log10 of the molar value.
readout-type: pIC50

>>> endpoint_result("O=C1/C(=C\\C=C\\c2ccc([N+](=O)[O-])cc2)c2ccccc2N1CCOCCF [F-18-α-syn3]")
6.85

---

assay: logP analysis of the F-18-α-syn3; type: physicochemical; conditions: 50 uCi; read-out: logP
readout-type: logP

>>> endpoint_result("O=C1/C(=C\\C=C\\c2ccc([N+](=O)[O-])cc2)c2ccccc2N1CCOCCF [F-18-α-syn3]")
2.63

---

experiment: logP analysis of the F-18-α-syn3; type: physicochemical; details: labeling finished product solution tested repeatedly; read-out: logP, range of all repeated tests
readout-type: logP

>>> endpoint_result("O=C1/C(=C\\C=C\\c2ccc([N+](=O)[O-])cc2)c2ccccc2N1CCOCCF [F-18-α-syn3]")
"2 to 3"

---

Assay: logP analysis of the F-18-α-syn3
Format: physicochemical
Details: end solution, 50 uCi; read-out: logP
Source text: The experimental results of the logP analysis of the F-18-α-syn3 of the present invention are as follows: The above data is about testing the logP of the F-18-α-syn3 labeling finished product solution repeatedly. The result confirms that all the logP values range from 2 to 3.
readout-type: logP

>>> endpoint_result("O=C1/C(=C\\C=C\\c2ccc([N+](=O)[O-])cc2)c2ccccc2N1CCOCCF [F-18-α-syn3]")
2.07
